molecular target: UDP-glucuronosyltransferase 2B7 (Homo sapiens); experiment: Specific activity of expressed human recombinant UGT2B7Y; format: ADME; settings: recombinant enzyme

[
  {
    "Compound": "CN1CC[C@]23c4c5ccc(O)c4O[C@H]2C(=O)CC[C@H]3[C@H]1C5 (stereo in doubt; form 2) [HYDROMORPHONE]",
    "Activity": "1550 pm/min/mg"
  },
  {
    "Compound": "Oc1ccc2c3c1O[C@H]1[C@@H](O)CC[C@@]4(O)[C@@H](C2)N(CC2CCC2)CC[C@]314",
    "Activity": "1100 pm/min/mg"
  },
  {
    "Compound": "C=C1CC[C@@]2(O)[C@H]3Cc4ccc(O)c5c4[C@@]2(CCN3CC2CC2)[C@H]1O5",
    "Activity": "625 pm/min/mg"
  },
  {
    "Compound": "C[C@]12CC[C@@H](O)C[C@@H]1CC[C@@H]1[C@@H]2CC[C@]2(C)C(=O)CC[C@@H]12 (stereo in doubt; form 1)",
    "Activity": "94 pm/min/mg"
  },
  {
    "Compound": "Oc1ccc2c3c1O[C@H]1c4[nH]c5ccccc5c4C[C@@]4(O)[C@@H](C2)N(CC2CC2)CC[C@]314",
    "Activity": "453 pm/min/mg"
  },
  {
    "Compound": "Oc1ccc2c3c1O[C@H]1[C@@H](O)C=C[C@H]4[C@@H](C2)NCC[C@@]341",
    "Activity": "80 pm/min/mg"
  },
  {
    "Compound": "CN1CC[C@]23c4c5ccc(O)c4O[C@H]2[C@@H](O)C=C[C@H]3[C@H]1C5 (stereo in doubt; (-)) [MORPHINE]",
    "Activity": "3719 pm/min/mg"
  },
  {
    "Compound": "C[C@]12CC[C@H]3[C@@H](CCC4=CC(=O)CC[C@@]43C)[C@@H]1CC[C@@H]2O (stereo in doubt; form 2)",
    "Activity": "0 pm/min/mg"
  },
  {
    "Compound": "CN1CC[C@]23c4c5ccc(O)c4O[C@H]2[C@@H](O)C=C[C@H]3[C@H]1C5 (stereo in doubt; (+)) [MORPHINE]",
    "Activity": "160 pm/min/mg"
  },
  {
    "Compound": "CN1CC[C@]23c4c5ccc(O)c4O[C@H]2C(=O)CC[C@@]3(O)[C@H]1C5",
    "Activity": "2300 pm/min/mg"
  },
  {
    "Compound": "CN1CC[C@]23c4c5ccc(O)c4O[C@H]2C(=O)CC[C@H]3[C@H]1C5 (stereo in doubt; form 1) [HYDROMORPHONE]",
    "Activity": "530 pm/min/mg"
  }
]

====

Activity for assorted compounds
Molecular target: UDP-glucuronosyltransferase 2B7 (Homo sapiens)
Sequence (P16662 whole entry): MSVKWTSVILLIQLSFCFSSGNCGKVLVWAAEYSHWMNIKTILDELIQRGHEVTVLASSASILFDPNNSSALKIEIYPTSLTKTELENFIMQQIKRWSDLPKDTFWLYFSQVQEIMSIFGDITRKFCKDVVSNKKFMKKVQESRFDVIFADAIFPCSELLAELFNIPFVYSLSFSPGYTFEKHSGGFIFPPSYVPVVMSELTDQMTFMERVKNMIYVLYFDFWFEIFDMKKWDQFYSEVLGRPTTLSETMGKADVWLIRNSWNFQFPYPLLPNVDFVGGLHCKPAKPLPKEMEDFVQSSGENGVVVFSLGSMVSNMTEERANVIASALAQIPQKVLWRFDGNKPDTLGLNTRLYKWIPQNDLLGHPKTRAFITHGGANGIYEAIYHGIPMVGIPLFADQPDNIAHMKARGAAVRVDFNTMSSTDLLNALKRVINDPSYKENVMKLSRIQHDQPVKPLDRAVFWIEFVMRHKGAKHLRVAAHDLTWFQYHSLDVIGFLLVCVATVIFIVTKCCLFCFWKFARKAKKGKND
Assay: Specific activity of expressed human recombinant UGT2B7H
Type: ADME
Settings: recombinant enzyme
Measure: Activity (pm/min/mg)

[
  {
    "Compound": "Oc1ccc2c3c1O[C@H]1c4oc5ccccc5c4C[C@@]4(O)[C@@H](C2)N(CC2CC2)CC[C@]314",
    "Measurement units": "pm/min/mg",
    "Obs value": 0
  },
  {
    "Compound": "C[C@]12CC[C@H]3[C@@H](CCC4=CC(=O)CC[C@@]43C)[C@@H]1CC[C@@H]2O (stereo in doubt; form 2)",
    "Measurement units": "pm/min/mg",
    "Obs value": 0
  },
  {
    "Compound": "C[C@]12CC[C@@H](O)C[C@@H]1CC[C@@H]1[C@@H]2CC[C@]2(C)C(=O)CC[C@@H]12 (stereo in doubt; form 1)",
    "Measurement units": "pm/min/mg",
    "Obs value": 114
  },
  {
    "Compound": "C[C@]12CC[C@H]3[C@@H](CCC4=CC(=O)CC[C@@]43C)[C@@H]1CC[C@H]2O [EPITESTOSTERONE]",
    "Measurement units": "pm/min/mg",
    "Obs value": 360
  }
]

Entry source: ChEMBL document CHEMBL1907987
